Can you tell me Minimum inhibitory concentration for the items I'm about to list?
Tested on: Pseudomonas aeruginosa ATCC 27853
Assay type: cell-based
Conditions: ATCC 27853
Where a SMILES comes first, the peptide text is derived from it. Bridges are numbered along the chain shown (N, C = ends). [ ]: non-standard residue; d: D form. The star is where a group is joined. X23 = O=C(c1cc2ccccc2[nH]1)*; X27 = O=C(c1sc2ccccc2c1Cl)*; X1 = O=C(c1ncc(Cl)cc1Cl)*; Dab = NCC[C@H](N)C(=O)O; Abu = CC[C@H](N)C(=O)O; Dap = NC[C@H](N)C(=O)O
Answers are plain numbers, in µg/mL.

Molecule: CC(C)C[C@H]1NC(=O)[C@H](CCN)NC(=O)[C@@H](NC(=O)[C@H](CN)NC(=O)[C@@H](NC(=O)[C@H](CCN)NC(=O)c2ncc(Cl)cc2Cl)[C@@H](C)O)CCNC(=O)[C@H]([C@@H](C)O)NC(=O)[C@H](CCN)NC(=O)[C@H](CCN)NC(=O)[C@H]([C@@H](C)O)NC1=O [Compound 8] (X1-[Dab]T[Dap][Dab][Dab][dL]T[Dab][Dab]T; lactam 4-C)
Minimum inhibitory concentration / µg/mL: 0.25
--
Molecule: CC(C)C[C@H]1NC(=O)[C@H](CCN)NC(=O)[C@@H](NC(=O)[C@H](CN)NC(=O)[C@@H](NC(=O)[C@H](CCN)NC(=O)c2cc3ccccc3[nH]2)[C@@H](C)O)CCNC(=O)[C@H]([C@@H](C)O)NC(=O)[C@H](CCN)NC(=O)[C@H](CCN)NC(=O)[C@H](C)NC1=O [Compound 67] (X23-[Dab]T[Dap][Dab][Dab][dL]A[Dab][Dab]T; lactam 4-C)
Minimum inhibitory concentration / µg/mL: 0.25

Now consider a different molecule.
Task: Any idea what Minimum inhibitory concentration was measured for CC[C@@H]1NC(=O)[C@@H](CC(C)C)NC(=O)[C@H](CCN)NC(=O)[C@@H](NC(=O)[C@H](CN)NC(=O)[C@@H](NC(=O)[C@H](CCN)NC(=O)c2sc3ccccc3c2Cl)[C@@H](C)O)CCNC(=O)[C@H]([C@@H](C)O)NC(=O)[C@H](CCN)NC(=O)[C@H](CCN)NC1=O [Compound 61] (X27-[Dab]T[Dap][Dab][Dab][dL][Abu][Dab][Dab]T; lactam 4-C) ?
Result: 0.25

====

Tested on: Pseudomonas aeruginosa FADDI-PA01
Type: cell-based
Conditions: FADDI-
Where a SMILES comes first, the peptide text is derived from it. Bridges are numbered along the chain shown (N, C = ends). [ ]: non-standard residue; d: D form. The star is where a group is joined. Quinaldoyl = O=C(c1ccc2ccccc2n1)*; X32 = O=C(c1cnc(Cl)c(Cl)c1)*; X30 = O=C(c1ccc(Cl)cn1)*; Dab = NCC[C@H](N)C(=O)O; Abu = CC[C@H](N)C(=O)O; Dap = NC[C@H](N)C(=O)O
Observation type: Minimum inhibitory concentration (µg/mL)
One number for each entry, in µg/mL.

Compound: CC[C@@H]1NC(=O)[C@@H](CC(C)C)NC(=O)[C@H](CCN)NC(=O)[C@@H](NC(=O)[C@H](CN)NC(=O)[C@@H](NC(=O)[C@H](CCN)NC(=O)c2ccc(Cl)cn2)[C@@H](C)O)CCNC(=O)[C@H]([C@@H](C)O)NC(=O)[C@H](CCN)NC(=O)[C@H](CCN)NC1=O [Compound 37] (X30-[Dab]T[Dap][Dab][Dab][dL][Abu][Dab][Dab]T; lactam 4-C)
Observation type: Minimum inhibitory concentration
Readout units: µg/mL
Endpoint result: 0.25

Compound: CC[C@@H]1NC(=O)[C@@H](CC(C)C)NC(=O)[C@H](CCN)NC(=O)[C@@H](NC(=O)[C@H](CN)NC(=O)[C@@H](NC(=O)[C@H](CCN)NC(=O)c2cnc(Cl)c(Cl)c2)[C@@H](C)O)CCNC(=O)[C@H]([C@@H](C)O)NC(=O)[C@H](CCN)NC(=O)[C@H](CCN)NC1=O [Compound 5] (X32-[Dab]T[Dap][Dab][Dab][dL][Abu][Dab][Dab]T; lactam 4-C)
Observation type: Minimum inhibitory concentration
Readout units: µg/mL
Endpoint result: 0.25

Now consider a different compound.
Task: Any idea what Minimum inhibitory concentration was measured for CC[C@@H]1NC(=O)[C@@H](CC(C)C)NC(=O)[C@H](CCN)NC(=O)[C@@H](NC(=O)[C@H](CN)NC(=O)[C@@H](NC(=O)[C@H](CCN)NC(=O)c2ccc3ccccc3n2)[C@@H](C)O)CCNC(=O)[C@H]([C@@H](C)O)NC(=O)[C@H](CCN)NC(=O)[C@H](CCN)NC1=O [Compound 55] (Quinaldoyl-[Dab]T[Dap][Dab][Dab][dL][Abu][Dab][Dab]T; lactam 4-C) ?
Result: 0.25
